Just for reference, patent US20120009179A1 is where these values come from.

The following binders are shown together with reported kon values.
- test.target: T1, Aβ oligomers prepared from Amyloid β-protein, Human 1-42 peptide (human, UniProt P05067 672-713)
- T1 construct: domain: Amyloid β-protein, Human 1-42 peptide; Non-covalent oligomer of synthetic Aβ1-42; Immobilized on a CM5 chip by amine coupling; also called amyloid β protein oligomer
- T1 sequence (P05067 672-713 limits assumed): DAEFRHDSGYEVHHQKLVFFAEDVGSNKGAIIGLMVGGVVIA
- assay.remarks: SPR (Biacore T100), Aβ oligomers amine-coupled on CM5 chip, antibody injected, Bivalent Analyte model (ka1)

Study these solved cases before continuing.
>>> measured("anti-Aβ oligomer humanized antibody HV0LV2a (antibody, V domains shown, also called 6E4HV0 + LV2a) VH: QVQLVQSGAEVKKPGASVKVSCKASGYTFTSYWMHWVRQAPGQGLEWMGEINPRNGGTNNNENFKRRVTITADTSTSTAYMELSSLRSEDTAVYYCARDGNYDPFAYWGQGTLVTVSS VL: DIVMTQSPLSLPVTPGEPASISCRSSQSLVHSNGNTYLHWYLQKPGQSPKLLIYKVSNRFSGVPDRFSGSGSGTDFTLKISRVEAEDVGVYFCSQSTHVPPYTFGQGTKLEIK")
"6400 M⁻¹ s⁻¹"
>>> measured("anti-Aβ oligomer humanized antibody HV0LV0 (antibody, V domains shown, Whole humanized antibody expressed from vector pKANTEX93 (WO 97/10354) with human constant regions; Produced in FUT8 knockout CHO/DG44 cells (no core fucose); also called 6E4HV0 + 6E4LV0) VH: QVQLVQSGAEVKKPGASVKVSCKASGYTFTSYWMHWVRQAPGQGLEWMGEINPRNGGTNNNENFKRRVTITADTSTSTAYMELSSLRSEDTAVYYCARDGNYDPFAYWGQGTLVTVSS VL: DIVMTQSPLSLPVTPGEPASISCRSSQSLVHSNGNTYLHWYLQKPGQSPQLLIYKVSNRFSGVPDRFSGSGSGTDFTLKISRVEAEDVGVYYCSQSTHVPPYTFGQGTKLEIK")
"17000 M⁻¹ s⁻¹"
>>> measured("anti-Aβ oligomer humanized antibody HV0LV4 (antibody, V domains shown, also called 6E4HV0 + LV4) VH: QVQLVQSGAEVKKPGASVKVSCKASGYTFTSYWMHWVRQAPGQGLEWMGEINPRNGGTNNNENFKRRVTITADTSTSTAYMELSSLRSEDTAVYYCARDGNYDPFAYWGQGTLVTVSS VL: DVVMTQSPLSLPVTLGEPASISCRSSQSLVHSNGNTYLHWYLQKPGQSPKLLIYKVSNRFSGVPDRFSGSGSGTDFTLKISRVEAEDVGVYFCSQSTHVPPYTFGQGTKLEIK")
"7000 M⁻¹ s⁻¹"

Kindly review the next binder as well.
Enquiry: May I ask what kon has been recorded for anti-Aβ oligomer humanized antibody HV12LV4 (antibody, V domains shown) VH: QVQLVQSGAEVVKPGASVKLSCKASGYTFTSYWMHWVKLAPGQGFEWIGEINPRNGGTNNNENFKRKATLTVDKSTSTAYMELSSLRSEDTAVYYCTRDGNYDPFAYWGQGTLVTVSS VL: DVVMTQSPLSLPVTLGEPASISCRSSQSLVHSNGNTYLHWYLQKPGQSPKLLIYKVSNRFSGVPDRFSGSGSGTDFTLKISRVEAEDVGVYFCSQSTHVPPYTFGQGTKLEIK ?
Return: 2700 M⁻¹ s⁻¹
